Data origin: paper PMC7432838

assay: Pharmacokinetic study after oral administration in SD rats; assay type: in vivo, rat; settings: male, Sprague-Dawley, rat, in vivo, po, 150 mg/kg, AUC(0-last)
Property Label: AUC(0-t) (ng·h/mL)
Your answer is read as ng·h/mL, so omit the unit and give the number.

Ask | Reported AUC(0-t), molecule CCN(CC)C(=O)CC(C)(C(=O)/C=C/c1ccc(OC)c(OC)c1)C(=O)/C=C/c1ccc(OC)c(OC)c1 [TML-6] : ____
Reply | 177
